- Tested on: MET
- PROTOCOL_DESCRIPTION: MET biochemical kinase assay
- Set-up: species or system human; concentration or dose not given beside the values
The reader will find reported Met Kinase % Inhibition values listed item by item below.
Quick reminder: number only, in %, skip the unit.

Study these solved cases before continuing.
- COMPOUND: "CNS(=O)(=O)c1ccc2c(c1)C(=Cc1ccc3c(c1)Cc1ccccc1-3)C(=O)N2 [10728/D06]"
  ENDPOINT_UNIT: "%"
  Met Kinase % Inhibition: 23.2
- COMPOUND: "COc1c(Cl)cc(C=C2C(=O)Nc3c(Br)cc(Br)cc32)cc1C(C)(C)C [10732/A09]"
  ENDPOINT_UNIT: "%"
  Met Kinase % Inhibition: 60.3

Now consider the entry below.
For reference, reported Met Kinase % Inhibition for CCc1ccc(C=C2C(=O)Nc3c(Br)cc(Br)cc32)s1 [10726/A10] stands at 58.9

----------
Measured Met Kinase % Inhibition, listed per entry for reference.
- Tested on: MET
- PROTOCOL_DESCRIPTION: MET biochemical kinase assay
- Design: species or system human; concentration or dose not given beside the values

Take a look at these entries with their results.
- COMPOUND_STRUCTURE: "CNS(=O)(=O)c1ccc2c(c1)C(=Cc1cc([N+](=O)[O-])ccc1O)C(=O)N2"
  Met Kinase % Inhibition: "22.8%"
- COMPOUND_STRUCTURE: "CCOC(=O)c1[nH]c(C=C2C(=O)Nc3ccc(S(=O)(=O)Nc4ccc(C(F)(F)F)cc4)cc32)c(C(=O)OC)c1C"
  Met Kinase % Inhibition: "62.4%"

Measured Met Kinase % Inhibition of O=C1Nc2ccc(CCCl)cc2C1=Cc1cccc(Oc2ccccc2)c1 : 26.0%

Short answer for O=C1Nc2ccc(CCCl)cc2C1=Cc1ccc(Br)s1 : Met Kinase % Inhibition was 20.2%

Lab book: Met Kinase % Inhibition of CNS(=O)(=O)c1ccc2c(c1)C(=Cc1cc(C(F)(F)F)ccc1F)C(=O)N2 noted as 34.7%

Reported Met Kinase % Inhibition for CNS(=O)(=O)c1ccc2c(c1)C(=Cc1cc(Br)ccc1O)C(=O)N2 was 38.7%

// Met Kinase % Inhibition lookup, compound = CNS(=O)(=O)c1ccc2c(c1)C(=Cc1ccc(SC)cc1)C(=O)N2 , result: 33.1%

----------
molecules and their reported Met Kinase % Inhibition
- Test system: MET
- PROTOCOL_DESCRIPTION: MET biochemical kinase assay
- Design: species or system human; concentration or dose not given beside the values
Give your result in % as a bare value.

// solved cases for Met Kinase % Inhibition follow
- COMPOUND_STRUCTURE: "O=C1Nc2ccc(S(=O)(=O)Nc3ccc(C(F)(F)F)cc3)cc2C1=Cc1cccc(C(F)(F)F)c1F"
  ENDPOINT_UNIT: "%"
  Met Kinase % Inhibition: 79.8
- COMPOUND_STRUCTURE: "O=C1Nc2ccc(I)cc2C1=Cc1cccn1-c1ccc(Cl)cc1"
  ENDPOINT_UNIT: "%"
  Met Kinase % Inhibition: 43.8
- COMPOUND_STRUCTURE: "Cc1c(Br)ccc2c1C(=Cc1ccc(OCc3ccccc3)c(C(C)(C)C)c1)C(=O)N2"
  ENDPOINT_UNIT: "%"
  Met Kinase % Inhibition: 21.6
- COMPOUND_STRUCTURE: "CC(C)(C)c1ccc(C=C2C(=O)Nc3ccc(S(=O)(=O)Nc4ccc(C(F)(F)F)cc4)cc32)cc1"
  ENDPOINT_UNIT: "%"
  Met Kinase % Inhibition: 27.9
- COMPOUND_STRUCTURE: "O=C1Nc2ccc(I)cc2C1=Cc1ccc(Cl)c([N+](=O)[O-])c1"
  ENDPOINT_UNIT: "%"
  Met Kinase % Inhibition: 63.4

What the record says about O=C1Nc2ccc(S(=O)(=O)Nc3ccc(C(F)(F)F)cc3)cc2C1=Cc1ccccc1Sc1ccc(Cl)cc1 : Met Kinase % Inhibition is 12.1

----------
- MEASURED_TARGET: EGFR (Homo sapiens)
- Construct: Add 7 ug A431 cell lysate per well (EGFR source); endogenous in cells; host or cells: A431
- Sequence (P00533 25-1210): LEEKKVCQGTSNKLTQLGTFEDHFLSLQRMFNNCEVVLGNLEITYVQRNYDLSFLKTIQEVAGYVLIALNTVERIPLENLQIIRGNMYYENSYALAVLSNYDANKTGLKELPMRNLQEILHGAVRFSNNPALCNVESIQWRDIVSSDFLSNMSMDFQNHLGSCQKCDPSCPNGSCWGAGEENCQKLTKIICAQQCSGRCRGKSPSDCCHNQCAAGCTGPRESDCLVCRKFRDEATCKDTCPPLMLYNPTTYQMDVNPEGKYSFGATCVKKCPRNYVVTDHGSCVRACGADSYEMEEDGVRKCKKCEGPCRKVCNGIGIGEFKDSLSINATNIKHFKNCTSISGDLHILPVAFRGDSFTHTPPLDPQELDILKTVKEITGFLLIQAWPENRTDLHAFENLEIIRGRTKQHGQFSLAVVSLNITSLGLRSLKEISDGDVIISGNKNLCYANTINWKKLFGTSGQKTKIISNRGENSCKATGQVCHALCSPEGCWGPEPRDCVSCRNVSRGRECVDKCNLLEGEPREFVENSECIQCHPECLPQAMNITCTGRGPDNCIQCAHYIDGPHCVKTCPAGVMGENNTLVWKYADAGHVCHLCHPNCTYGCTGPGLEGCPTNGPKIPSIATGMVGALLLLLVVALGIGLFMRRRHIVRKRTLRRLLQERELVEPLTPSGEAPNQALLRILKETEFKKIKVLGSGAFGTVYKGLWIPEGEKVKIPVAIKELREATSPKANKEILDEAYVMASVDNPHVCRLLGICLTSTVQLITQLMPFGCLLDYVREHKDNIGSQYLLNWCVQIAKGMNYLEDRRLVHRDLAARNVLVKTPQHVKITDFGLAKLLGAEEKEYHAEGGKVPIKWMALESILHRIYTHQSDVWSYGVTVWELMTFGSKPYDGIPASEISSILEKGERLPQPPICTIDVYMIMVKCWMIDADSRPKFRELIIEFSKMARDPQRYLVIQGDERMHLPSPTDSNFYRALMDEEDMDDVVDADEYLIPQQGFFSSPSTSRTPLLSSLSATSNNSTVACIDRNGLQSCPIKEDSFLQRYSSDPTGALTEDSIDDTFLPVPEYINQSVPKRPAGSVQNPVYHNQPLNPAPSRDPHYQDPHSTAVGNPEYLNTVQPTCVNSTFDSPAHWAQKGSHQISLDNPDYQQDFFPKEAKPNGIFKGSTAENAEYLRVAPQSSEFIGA
- PROTOCOL_DESCRIPTION: EGFR ELISA assay (in vitro kinase activity, EGFR captured from A431 cell lysate)
- Type: biochemical
- Design: concentration or dose not given beside the values
Below is a list of entries, each paired with its recorded Biochem EGFR %Inhibition value.
A number alone suffices; assume %.

Solved entries (count: 2):
- COMPOUND: "CNS(=O)(=O)c1ccc2c(c1)C(=Cc1ccc([N+](=O)[O-])s1)C(=O)N2 [10722/D04]"
  REPORTED_RESULT: 20.3
- COMPOUND: "O=C1Nc2ccc(S(=O)(=O)Nc3ccc(C(F)(F)F)cc3)cc2C1=Cc1ccc(Cl)s1 [10721/E07]"
  REPORTED_RESULT: 37.7

Continue with the compound presented below.
Value sought: Biochem EGFR %Inhibition, system EGFR (Homo sapiens), item Cc1cc(C=C2C(=O)Nc3c(Br)cc(Br)cc32)ccc1O [10723/A06] . Result: 20.1

----------
- System: MET
- PROTOCOL_DESCRIPTION: MET biochemical kinase assay
- Parameters: species or system human; concentration or dose not given beside the values
Entry flag: y if Met Kinase % Inhibition reaches 60%; n if it does not.

- COMPOUND_STRUCTURE: "COc1c([N+](=O)[O-])cc(C=C2C(=O)Nc3ccc(S(=O)(=O)N4CCOCC4)cc32)cc1C(C)(C)C"
  ANSWER_LABEL: "n"
- COMPOUND_STRUCTURE: "CNS(=O)(=O)c1ccc2c(c1)C(=C1C(=O)Nc3ccc(F)cc31)C(=O)N2"
  ANSWER_LABEL: "n"
- COMPOUND_STRUCTURE: "O=C1Nc2ccc(CCCl)cc2C1=Cc1ccc([N+](=O)[O-])s1"
  ANSWER_LABEL: "y"
- COMPOUND_STRUCTURE: "Cn1cccc1C=C1C(=O)Nc2ccc(S(=O)(=O)N3CCOCC3)cc21"
  ANSWER_LABEL: "n"

From here, focus on the item given below.
Check if Met Kinase % Inhibition >= 60% (inclusive). Item: O=C1Nc2c(Br)cc(Br)cc2C1=Cc1ccc(Br)cc1
n

----------
- MEASURED_TARGET: PDGF-R (Homo sapiens, UniProt P09619)
- Sequence (P09619 33-1106, species assumed): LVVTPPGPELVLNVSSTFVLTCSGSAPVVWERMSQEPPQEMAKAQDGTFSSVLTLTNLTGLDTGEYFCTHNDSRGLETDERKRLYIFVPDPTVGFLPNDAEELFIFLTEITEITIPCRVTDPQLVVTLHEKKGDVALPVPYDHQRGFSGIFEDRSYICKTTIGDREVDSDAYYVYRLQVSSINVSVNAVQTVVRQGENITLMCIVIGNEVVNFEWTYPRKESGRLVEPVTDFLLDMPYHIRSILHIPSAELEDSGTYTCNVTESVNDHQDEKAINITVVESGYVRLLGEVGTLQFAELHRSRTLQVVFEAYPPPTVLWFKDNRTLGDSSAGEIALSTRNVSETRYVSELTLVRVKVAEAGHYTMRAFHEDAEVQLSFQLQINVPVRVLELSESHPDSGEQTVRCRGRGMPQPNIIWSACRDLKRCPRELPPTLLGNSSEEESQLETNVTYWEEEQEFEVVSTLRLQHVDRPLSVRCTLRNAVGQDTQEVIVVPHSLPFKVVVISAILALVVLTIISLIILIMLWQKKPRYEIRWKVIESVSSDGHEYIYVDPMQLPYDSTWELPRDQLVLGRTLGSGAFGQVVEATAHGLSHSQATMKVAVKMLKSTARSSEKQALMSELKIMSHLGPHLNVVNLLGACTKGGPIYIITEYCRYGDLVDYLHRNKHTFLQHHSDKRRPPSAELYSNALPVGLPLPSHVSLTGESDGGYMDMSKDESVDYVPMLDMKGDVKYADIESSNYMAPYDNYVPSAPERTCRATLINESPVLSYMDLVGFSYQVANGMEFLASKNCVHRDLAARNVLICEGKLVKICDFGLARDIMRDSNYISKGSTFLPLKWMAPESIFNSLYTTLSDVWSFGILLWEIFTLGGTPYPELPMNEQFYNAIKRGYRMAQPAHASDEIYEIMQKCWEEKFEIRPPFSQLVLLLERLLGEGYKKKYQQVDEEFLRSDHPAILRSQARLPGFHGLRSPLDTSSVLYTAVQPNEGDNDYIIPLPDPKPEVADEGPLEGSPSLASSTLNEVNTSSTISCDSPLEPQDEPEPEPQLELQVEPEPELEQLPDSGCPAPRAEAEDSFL
- PROTOCOL_DESCRIPTION: PDGF-R ELISA
- Assay type: cell-based
Each record here notes measured PDGF Kinase %Inhibition.
Could you give me the number in %? Just the number is fine.

- MOLECULE: "CNS(=O)(=O)c1ccc2c(c1)C(=Cc1cc(C)c(O)c(C)c1)C(=O)N2 [10722/D07]"
  PDGF Kinase %Inhibition (%): 25.5
- MOLECULE: "CC(=O)Oc1ccc(C=C2C(=O)Nc3ccc(S(=O)(=O)Nc4ccc(C(F)(F)F)cc4)cc32)cc1OC(C)=O [10723/E05]"
  PDGF Kinase %Inhibition (%): -4.9
- MOLECULE: "CNS(=O)(=O)c1ccc2c(c1)C(=Cc1cc(C(F)(F)F)ccc1F)C(=O)N2 [10728/D08]"
  PDGF Kinase %Inhibition (%): 2.7
- MOLECULE: "CNS(=O)(=O)c1ccc2c(c1)C(=Cc1c(O)cc(C)cc1OC)C(=O)N2 [10725/D06]"
  PDGF Kinase %Inhibition (%): 21.7
- MOLECULE: "CNS(=O)(=O)c1ccc2c(c1)C(=Cc1c(F)cccc1C(F)(F)F)C(=O)N2 [10728/D09]"
  PDGF Kinase %Inhibition (%): -3.9
- MOLECULE: "COC(=O)Cc1c(Cl)[nH]c(C=C2C(=O)Nc3c(Br)cc(Br)c(C)c32)c1C(=O)OC [10725/A09]"
  PDGF Kinase %Inhibition (%): 29.4
- MOLECULE: "CNS(=O)(=O)c1ccc2c(c1)C(=Cc1cn(C)cc1C)C(=O)N2 [10726/D06]"
  PDGF Kinase %Inhibition (%): 28.4

Could you now look at the following molecule, please?
The value of PDGF Kinase %Inhibition recorded for Cc1cc(C=C2C(=O)Nc3ccc(CCCl)cc32)cc(C)c1O [10722/G07] when tested on PDGF-R (Homo sapiens, UniProt P09619) reads -3.7

----------
- Tested on: MET
- PROTOCOL_DESCRIPTION: MET biochemical kinase assay
- Parameters: species or system human; concentration or dose not given beside the values
Measured Met Kinase % Inhibition values are reported for all entries that follow.
Quick note: give the figure in %, leave out the unit.

Some solved cases for reference:
- MOLECULE: "O=C1Nc2ccc(F)cc2C1=C1C(=O)Nc2ccc(CCCl)cc21"
  ENDPOINT_UNIT: "%"
  Met Kinase % Inhibition: 39.1
- MOLECULE: "O=C1Nc2ccc(S(=O)(=O)Nc3ccc(C(F)(F)F)cc3)cc2C1=Cc1cccc([N+](=O)[O-])c1"
  ENDPOINT_UNIT: "%"
  Met Kinase % Inhibition: 40.2
- MOLECULE: "Cc1c(Br)ccc2c1C(=CC(c1cccs1)C(F)(F)F)C(=O)N2 (stereo not shown)"
  ENDPOINT_UNIT: "%"
  Met Kinase % Inhibition: 40.1

Data point: O=C1Nc2ccc(CCCl)cc2C1=Cc1cc([N+](=O)[O-])cc(CCl)c1O ; Met Kinase % Inhibition = 39.5
